experimentNotes: self-splicing fitness, log relative to wild type (ln ratio); higher = more splicing; Tetrahymena group I intron in knt gene, E. coli kanamycin selection, DiMSum; sequences stand for … in CUCUCU…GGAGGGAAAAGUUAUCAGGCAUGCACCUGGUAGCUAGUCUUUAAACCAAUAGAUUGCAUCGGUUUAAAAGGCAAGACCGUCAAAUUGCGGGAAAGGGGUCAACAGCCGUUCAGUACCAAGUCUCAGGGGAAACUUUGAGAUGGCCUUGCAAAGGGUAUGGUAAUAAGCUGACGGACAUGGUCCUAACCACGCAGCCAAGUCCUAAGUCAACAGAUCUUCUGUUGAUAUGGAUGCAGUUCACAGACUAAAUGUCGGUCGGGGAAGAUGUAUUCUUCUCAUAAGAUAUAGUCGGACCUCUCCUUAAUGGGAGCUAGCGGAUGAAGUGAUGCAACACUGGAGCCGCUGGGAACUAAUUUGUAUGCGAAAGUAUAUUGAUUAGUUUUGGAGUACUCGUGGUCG;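 note: selection with 25 µg/mL kanamycin versus none on LB agar overnight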
protocolConditions: 37 °C
Please respond with reported self-splicing fitness (ln) for every item in the list.

As a guide, the following entries are already answered.
seq | self-splicing fitness (ln)
UAGAAGCAAUAUUACGAUAG | -0.522
GCAAAGCAAUAUUACGAGUU | -0.891
AUGGAGCAAUAUUACGGUCA | -0.926

Go through the items and report each one's self-splicing fitness (ln).
1. UAGAAGCAAUAUUACGAGGG
2. UGUUAGCAAUAUUACGUGUA
3. UCUCAGCAAUAUUACGACAC
4. GAAAAGCAAUAUUACGCGCC
5. CAUGAGCAAUAUUACGGCUA
6. AAAUAGCAAUAUUACGCUAG
7. CACCAGCAAUAUUACGUCCC
8. UAACAGCAAUAUUACGCACC

Reply:
1. -2.62
2. -0.349
3. -3.33
4. -1.25
5. -1.87
6. -1
7. -2.79
8. -1.88
